Exercise: for every item that follows, state its recorded pIC50.
test system: OVCAR3 cells; assay: Cell proliferation activity test (CyQUANT Direct); type: cell-based; conditions: Homo sapiens, OVCAR-3, 72 h, 3 days, 0.2% DMSO, CyQUANT fluorescence
In textbook form, pIC50 equals minus log to base ten of the concentration in mol/L.

Given the entry Cn1c2nc(cc1=O)NC(=O)c1c(cc(NS(=O)(=O)CCO)c3c1CCC3=O)N1CCC(C/C=C\C3CN2CCC3(F)F)CC1 (stereo not shown) , report its measured pIC50.
5.98

Sample Cc1cc2nc(n1)N1CCC(F)=C(/C=C\CC3CCN(CC3)c3cc(NS(=O)(=O)CCO)c4c(c3C(=O)N2)CCC4=O)C1 — what was its pIC50?
5.95

Requested field: pIC50. Item: Cc1cc2nc(n1)N1CCC(F)(F)C(C=CCC3CCN(CC3)c3cc(NS(=O)(=O)CCO)ccc3-n3cc-2nn3)C1 (stereo not shown)
7.47

Query: pIC50; subject: Cc1cc2nc(n1)N1CCC(F)(F)C(/C=C\CC3CCN(CC3)c3cc(NS(=O)(=O)CCO)c4c(c3C(=O)N2)CCC4)C1 (stereo not shown)
7.31

# get_value(readout='pIC50', item= Cc1cc2nc(n1)N1CCC(F)(F)C(/C=C/CCC3CCN(CC3)c3cc(NS(=O)(=O)CCO)ccc3-n3cc-2nn3)C1 (racemic) )
7.20

Please report the recorded pIC50 for Cc1cc2nc(n1)N1CCC(F)(F)C(/C=C/CC3CCN(CC3)c3cc(NS(=O)(=O)CCO)c(C(=O)N(C)C)cc3-n3cc-2nn3)C1 (stereo not shown) .
7.04

Suppose we examine the molecule Cc1cc2nc(n1)N1CCC(F)=C(/C=C/CC3CCN(CC3)c3cc(NS(=O)(=O)CCO)ccc3-n3cc-2nn3)C1 ; what pIC50 value has been reported?
7.00

For the molecule COc1cc2nc(n1)N1CCC(F)(F)C(C=CCc3cccc(c3)-c3cc(NS(=O)(=O)CCO)ccc3C(=O)N2)C1 (stereo not shown) , what pIC50 is on record?
6.06

What value of measured pIC50 is listed for Cc1cc2nc(n1)N1CCC(F)(F)C(CCCc3ccc(cc3)-c3cc(NS(=O)(=O)CCO)ccc3C(=O)N2)C1 (single isomer, unassigned) [Example 46A] ?
7.44

Given the molecule Cc1cc2nc(n1)N1CCC(F)(F)C(/C=C\CC3CCN(CC3)c3cc(NS(=O)(=O)C(C)CO)c4c(c3C(=O)N2)CCC4=O)C1 (stereo not shown) , what is its reported pIC50?
7.60

Quick one: pIC50 of Cc1cc2nc(n1)N1CCC(F)(F)C(C=CCc3ccc(cc3)-c3cc(NS(=O)(=O)CCO)ccc3C(=O)N2)C1 (stereo not shown) ?
7.52

Can you share its pIC50? I mean this molecule: Cc1cc2nc(n1)N1CCC(F)=C(/C=C\CC3CCN(CC3)c3cc(NS(=O)(=O)CCO)ccc3-n3cc-2nn3)C1
5.89

Look at this molecule and give its reported pIC50. COc1cc2nc(n1)N1CCC(F)(F)C(CCCc3ccc(cc3)-c3cc(NS(=O)(=O)CCO)ncc3C(=O)N2)C1 (single isomer, unassigned) [Example 56A]
6.73

Name the recorded pIC50 for COc1cc2nc(n1)N1CCC(F)(F)C(CCCc3ccc(cc3)-c3cc(NS(=O)(=O)CCO)ccc3C(=O)N2)C1 (single isomer, unassigned) [Example 51A] .
7.35

For the molecule Cc1cc2nc(n1)N1CCC(F)(F)C(/C=C/CC3CCN(CC3)c3cc(NS(=O)(=O)CCO)c4c(c3C(=O)N2)OCC4=O)C1 (stereo not shown) [Example 14A] , what pIC50 is on record?
6.20

Bench note: what pIC50 did Cc1cc2nc(n1)N1CCC(F)(F)C(/C=C\CC3CCN(CC3)c3cc(NS(=O)(=O)CCO)c4c(c3C(=O)N2)CCC4(C)O)C1 (stereo not shown) show?
6.74
